Some binders, each annotated with its measured Kd.
Molecular target: canine IL-31 (Canine_IL31) (canine)
Sequence (chain, as listed by the source limits assumed, form in doubt): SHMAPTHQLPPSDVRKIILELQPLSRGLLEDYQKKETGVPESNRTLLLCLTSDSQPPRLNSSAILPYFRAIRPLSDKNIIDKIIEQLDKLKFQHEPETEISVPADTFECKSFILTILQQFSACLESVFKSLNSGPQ
Experiment: SPR (Biacore), immobilised IL-31, 1:1 fit
Answer format: numeric, nM implied, no suffix.

Consider the binder shown here: Feline 15H05 1.1 FW3 (antibody, V domains shown) VH: QVLLVQSGAEVRTPGASVKIFCKASGYSFTSYTIHWLRQAPAQGLEWMGNINPTSGYTENNQRFKDRLTLTADTSTNTAYMELSSLRSADTAMYYCARWGFKYDGEWSFDVWGAGTTVTVSS VL: EIQMTQSPSSLSASPGDRVTITCRASQGISIWLSWYQQKPGKVPKLLIYKASNLHIGVPPRFSGSGSGTHFTLTITSLQPEDIATYYCLQSQTYPLTFGGGTKLEIK What is its recorded Kd?
0.13

Feline 15H05 1.1 (antibody, V domains shown) VH: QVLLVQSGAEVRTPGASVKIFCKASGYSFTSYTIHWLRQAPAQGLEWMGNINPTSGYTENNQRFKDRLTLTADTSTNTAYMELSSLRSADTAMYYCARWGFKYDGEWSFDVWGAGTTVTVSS VL: EIQMTQSPSSLSASPGDRVTITCRASQGISIWLSWYQQKPGKVPKLLIYKASNLHIGVPSRFSGSGSGTDFTLTISSLEPEDAATYYCLQSQTYPLTFGGGTKLEIK ?
0.00504

Try Feline 15H05 1.1_FW1_2 (antibody, V domains shown) VH: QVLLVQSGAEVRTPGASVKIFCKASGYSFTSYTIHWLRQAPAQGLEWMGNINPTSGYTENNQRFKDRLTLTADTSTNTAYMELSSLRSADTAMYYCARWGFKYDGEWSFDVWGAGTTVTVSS VL: DIQMNQSPSSLSASLGDTITVTCRASQGISIWLSWYQQKPGNIPKVLINKASNLHIGVPSRFSGSGSGTDFTLTISSLEPEDAATYYCLQSQTYPLTFGGGTKLEIK next.
0.263

Others:
Which Kd value belongs to Feline 15H05 1.1 FW2 (antibody, V domains shown) VH: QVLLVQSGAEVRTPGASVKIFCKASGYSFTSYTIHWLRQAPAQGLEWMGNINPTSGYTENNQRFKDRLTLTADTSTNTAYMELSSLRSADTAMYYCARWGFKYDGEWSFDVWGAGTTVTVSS VL: EIQMTQSPSSLSASPGDRVTITCRASQGISIWLSWYQQKPGNIPKVLINKASNLHIGVPSRFSGSGSGTDFTLTISSLEPEDAATYYCLQSQTYPLTFGGGTKLEIK ?
0.000431

# repeat for Feline 11E12 1.1 (antibody, V domains shown) VH: QVLLVQSGAEVKKPGASVKIFCKASGYSFTYYDINWLRQAPEQGLEWMGWIFPGDGGTKYNETFKGRLTLTADTSTNTVYMELSSLRSADTAMYYCARGGTSVIRDAMDYWGQGALVTVSS VL: EIQMTQSPSSLSASPGDRVTITCRASESVDNYGISFMHWYQQKPGKVPKLLIYRASNLESGVPSRFSGSGSGTDFTLTISSLEPEDAATYYCQQSNKDPLTFGQGT
0.764
